- System: K4 kissing-loop RNA reporter;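 further: bound reporter read as fluorescence of individual clusters on recovered sequencing chips by microscopy, with normalized cluster intensities fitted with a binding model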
- protocol description: apparent KD of K4 kissing-loop reporter; higher = weaker reporter binding
- particulars: Eterna round: R107; input ligand: none
Parameter apparent KD of K4 kissing-loop reporter: see the listing below.
Could you give me the number in nM? Just the number is fine.

Kindly note the recorded apparent KD of K4 kissing-loop reporter for AAUAAGGAGUGAUGUUCCAAGUGAUGUUAACGAGGACCGGUACGGCCGCCACUCGAUACGGCCGGAAAGUAAGAUAAACUAAAAU [Same State - Tryptophan A (Freestyle 2)] , which is 52.3

====

- Tested on: MS2 coat protein
- protocol description: apparent KD of MS2 coat protein; designed switch direction (-1 OFF switch, 1 ON switch): -1; higher = weaker reporter binding
- particulars: input ligand: none
Parameter apparent KD of MS2 coat protein: see the listing below.

Guide cases for apparent KD of MS2 coat protein, answers given:
AUUUUGUGAGGAUAUUAGUUGUAGAAAGUUGUUAGUAUUGCUGAGAAGGCACAUGAGGAUCACCCAUGUACAAC [JR_Ex4_Sub038] (Eterna round: R97, puzzle: Exclusion 4) | 19.1 nM
AGAUCGUCAGGAUAUACAUGAGGAUCACCCAUGUGUAGUCUAAAUUUGACUACAAUAUGUAGAAGGGACGAUCG [Exclusion 3 (MOD3 of #1 Marzena11)] (Eterna round: R97, puzzle: Exclusion 3) | 42.8 nM
ACUUACUGAGGAUAUACAUAGAUUUACAUGAGGAUCACCCAUGUUCCUCUAUGUAUAUAUGUAGAAGGCAGAAGAG [Mat - Exclusion 5 - JL Mod - D35] (Eterna round: R97, puzzle: Exclusion 5) | 21.6 nM

Hey, MS2 coat protein data for GCACGGAUUGUAGGAUAUCUGUGCGAUUAGCUCAGAGAAGGACACAUGAGGAUCACCCAUGUUACCUCAAUUAGCCUUCCGUGC [Eli exng1 - 030] (Eterna round: R96, puzzle: Exclusion NG 1) : apparent KD of MS2 coat protein came out at 20 nM

Hey, MS2 coat protein data for UGAUGACAUGAGGAUCACCCAUGUCAGGAUAUUGAGCUUGAGCUGAAAAGUUCGAGUUCGAGAAGGGACUGUCG [-29.6, -26.6 kcal, A 28%, 1] (Eterna round: R97, puzzle: Exclusion 1) : apparent KD of MS2 coat protein came out at 29 nM

Hey, MS2 coat protein data for UAACUUCUAGUAAGGAUAUCGGUCCCAAGGGACAACGAGAAGGUACAUGAGGAUCACCCAUGUGAAAUAAGAAU [Mod of Zala 2 - Jieux - Brourd's Mod of Exclusion 4] (Eterna round: R97, puzzle: Brourd's mod of Exclusion 4) : apparent KD of MS2 coat protein came out at 20.7 nM

Hey, MS2 coat protein data for UGAGCAAGAGGAUAUACAUGACGUGCCGUAGCACGAGGUCUACAUGAGGAUCACCCAUGUAGAAGGCUUGUUCU [Mat - Exclusion 2 - JL Mod - D5] (Eterna round: R97, puzzle: Exclusion 2) : apparent KD of MS2 coat protein came out at 34.2 nM

Hey, MS2 coat protein data for CUGACGUCAGGAUAUAGCAUACACUGACUAGAUGGACAGGGUUAGAAGGGACAUGAGGAUCACCCAUGUGGUUU [Eternabot (L1) Solution 81] (Eterna round: R97, puzzle: Exclusion 4) : apparent KD of MS2 coat protein came out at 50.5 nM
